# METHOD_SUMMARY: Taxol release from protaxols in aqueous buffer
# Assay type: physicochemical
# ASSAY_CONTEXT: aqueous buffer; pH 7.5, 37° C.; read-out: t1/2 (pH 7.5), 50% taxol release
MEASUREMENT_TYPE: half-life

Which half-life value is on record for CC(=O)O[C@H]1C(=O)[C@@]2(C)[C@H]([C@H](OC(=O)c3ccccc3)[C@]3(O)C[C@H](OC(=O)[C@H](OC(=O)OCCS(=O)(=O)c4ccccc4)[C@@H](NC(=O)c4ccccc4)c4ccccc4)C(C)=C1C3(C)C)[C@]1(OC(C)=O)CO[C@@H]1C[C@@H]2O ? > 8.33 h

====

# System: H322 (lung carcinoma)
# METHOD_SUMMARY: Cytotoxicity (sulphorhodamine B), cancer cell line, Table 1B
# Type: cell-based
# ASSAY_CONTEXT: NCI-H322, 72 h
MEASUREMENT_TYPE: IC50

What measured IC50 goes with CC(=O)O[C@H]1C(=O)[C@@]2(C)[C@H]([C@H](OC(=O)c3ccccc3)[C@]3(O)C[C@H](OC(=O)[C@H](OC(=O)CS(=O)(=O)CC(=O)O)[C@@H](NC(=O)c4ccccc4)c4ccccc4)C(C)=C1C3(C)C)[C@]1(OC(C)=O)CO[C@@H]1C[C@@H]2O ? 1 nM

Quick one: IC50 of CC(=O)O[C@H]1C(=O)[C@]2(C)[C@@H](OC(=O)CSCC(=O)O)C[C@H]3OC[C@@]3(OC(C)=O)[C@H]2[C@H](OC(=O)c2ccccc2)[C@]2(O)C[C@H](OC(=O)[C@H](OC(=O)CSCC(=O)O)[C@@H](NC(=O)c3ccccc3)c3ccccc3)C(C)=C1C2(C)C ? 100 nM

Given the molecule CC(=O)O[C@H]1C(=O)[C@@]2(C)[C@H]([C@H](OC(=O)c3ccccc3)[C@]3(O)C[C@H](OC(=O)[C@H](OC(=O)OCCS(=O)(=O)c4ccc([N+](=O)[O-])cc4)[C@@H](NC(=O)c4ccccc4)c4ccccc4)C(C)=C1C3(C)C)[C@]1(OC(C)=O)CO[C@@H]1C[C@@H]2O , what is its reported IC50? 1000 nM

Given CC(=O)O[C@H]1C(=O)[C@@]2(C)[C@H]([C@H](OC(=O)c3ccccc3)[C@]3(O)C[C@H](OC(=O)[C@H](OC(=O)OCCSc4ccccc4)[C@@H](NC(=O)c4ccccc4)c4ccccc4)C(C)=C1C3(C)C)[C@]1(OC(C)=O)CO[C@@H]1C[C@@H]2O , state its recorded IC50. 1 nM

Looking for the measured IC50 of CC(=O)O[C@H]1C(=O)[C@@]2(C)[C@H]([C@H](OC(=O)c3ccccc3)[C@]3(O)C[C@H](OC(=O)[C@H](OC(=O)OCCS(=O)(=O)c4ccc(N)cc4)[C@@H](NC(=O)c4ccccc4)c4ccccc4)C(C)=C1C3(C)C)[C@]1(OC(C)=O)CO[C@@H]1C[C@@H]2O , can you help? 10 nM

Find the recorded IC50 belonging to CC(=O)O[C@H]1C(=O)[C@@]2(C)[C@H]([C@H](OC(=O)c3ccccc3)[C@]3(O)C[C@H](OC(=O)[C@H](O)[C@@H](NC(=O)c4ccccc4)c4ccccc4)C(C)=C1C3(C)C)[C@]1(OC(C)=O)CO[C@@H]1C[C@@H]2O and report it. 1 nM

// query IC50 value for entry COC(=O)CS(=O)(=O)CC(=O)O[C@@H](C(=O)O[C@H]1C[C@@]2(O)[C@@H](OC(=O)c3ccccc3)[C@@H]3[C@]4(OC(C)=O)CO[C@@H]4C[C@H](O)[C@@]3(C)C(=O)[C@H](OC(C)=O)C(=C1C)C2(C)C)[C@@H](NC(=O)c1ccccc1)c1ccccc1 100 nM

====

# System: H322 (lung carcinoma)
# METHOD_SUMMARY: Cytotoxicity, Example 8
# Type: cell-based
# ASSAY_CONTEXT: NCI-H322, 72 h
Assign pIC50 to each entry below.
// returns pIC50 (minus log10 of molar concentration), number only

Recorded pIC50 of CC(=O)O[C@H]1C(=O)[C@@]2(C)[C@H]([C@H](OC(=O)c3ccccc3)[C@]3(O)C[C@H](OC(=O)[C@H](OC(=O)CSCC(=O)O)[C@@H](NC(=O)c4ccccc4)c4ccccc4)C(C)=C1C3(C)C)[C@]1(OC(C)=O)CO[C@@H]1C[C@@H]2O [Compound 4, 2'-thiodiglycolic taxol] , please. 5.51

Which pIC50 is reported for this compound? CC(=O)O[C@H]1C(=O)[C@@]2(C)[C@H]([C@H](OC(=O)c3ccccc3)[C@]3(O)C[C@H](OC(=O)[C@H](OC(=O)CS(=O)(=O)CC(=O)O)[C@@H](NC(=O)c4ccccc4)c4ccccc4)C(C)=C1C3(C)C)[C@]1(OC(C)=O)CO[C@@H]1C[C@@H]2O [Compound 5] 5.30

Item under review: CC(=O)O[C@H]1C(=O)[C@@]2(C)[C@H]([C@H](OC(=O)c3ccccc3)[C@]3(O)C[C@H](OC(=O)[C@H](OC(=O)COCC(=O)O)[C@@H](NC(=O)c4ccccc4)c4ccccc4)C(C)=C1C3(C)C)[C@]1(OC(C)=O)CO[C@@H]1C[C@@H]2O [Compound 3] . Reported pIC50? 3.69

Fill in: pIC50 of CC(=O)O[C@H]1C(=O)[C@@]2(C)[C@H]([C@H](OC(=O)c3ccccc3)[C@]3(O)C[C@H](OC(=O)[C@H](O)[C@@H](NC(=O)c4ccccc4)c4ccccc4)C(C)=C1C3(C)C)[C@]1(OC(C)=O)CO[C@@H]1C[C@@H]2O [Taxol] is ___ 3.91

====

# Tested on: 786-0 (renal cell carcinoma)
# METHOD_SUMMARY: Cytotoxicity (sulphorhodamine B), cancer cell line, Table 1B
# Format: cell-based
# ASSAY_CONTEXT: Homo sapiens, 786-0, 72 h
MEASUREMENT_TYPE: IC50 (nM)
Give a bare numeral; the unit nM is implied.

Endpoint output: IC50 of CC(=O)O[C@H]1C(=O)[C@@]2(C)[C@H]([C@H](OC(=O)c3ccccc3)[C@]3(O)C[C@H](OC(=O)[C@H](OC(=O)CS(=O)(=O)CC(=O)O)[C@@H](NC(=O)c4ccccc4)c4ccccc4)C(C)=C1C3(C)C)[C@]1(OC(C)=O)CO[C@@H]1C[C@@H]2O . Value? 1000

For the compound CC(=O)O[C@H]1C(=O)[C@@]2(C)[C@H]([C@H](OC(=O)c3ccccc3)[C@]3(O)C[C@H](OC(=O)[C@H](OC(=O)OCCS(=O)(=O)c4ccc(N)cc4)[C@@H](NC(=O)c4ccccc4)c4ccccc4)C(C)=C1C3(C)C)[C@]1(OC(C)=O)CO[C@@H]1C[C@@H]2O , what IC50 is on record? 1000

Quick check: IC50 of CC(=O)O[C@H]1C(=O)[C@@]2(C)[C@H]([C@H](OC(=O)c3ccccc3)[C@]3(O)C[C@H](OC(=O)[C@H](O)[C@@H](NC(=O)c4ccccc4)c4ccccc4)C(C)=C1C3(C)C)[C@]1(OC(C)=O)CO[C@@H]1C[C@@H]2O ? 100

Data request, read-out IC50, for CC(=O)O[C@H]1C(=O)[C@]2(C)[C@@H](OC(=O)CSCC(=O)O)C[C@H]3OC[C@@]3(OC(C)=O)[C@H]2[C@H](OC(=O)c2ccccc2)[C@]2(O)C[C@H](OC(=O)[C@H](OC(=O)CSCC(=O)O)[C@@H](NC(=O)c3ccccc3)c3ccccc3)C(C)=C1C2(C)C 1000

# query: IC50 of entry CC(=O)O[C@H]1C(=O)[C@@]2(C)[C@H]([C@H](OC(=O)c3ccccc3)[C@]3(O)C[C@H](OC(=O)[C@H](OC(=O)OCCS(=O)(=O)c4ccc([N+](=O)[O-])cc4)[C@@H](NC(=O)c4ccccc4)c4ccccc4)C(C)=C1C3(C)C)[C@]1(OC(C)=O)CO[C@@H]1C[C@@H]2O 1000

May I ask what IC50 has been recorded for CC(=O)O[C@H]1C(=O)[C@@]2(C)[C@H]([C@H](OC(=O)c3ccccc3)[C@]3(O)C[C@H](OC(=O)[C@H](OC(=O)OCCSc4ccccc4)[C@@H](NC(=O)c4ccccc4)c4ccccc4)C(C)=C1C3(C)C)[C@]1(OC(C)=O)CO[C@@H]1C[C@@H]2O ? 10000

Entry COC(=O)CS(=O)(=O)CC(=O)O[C@@H](C(=O)O[C@H]1C[C@@]2(O)[C@@H](OC(=O)c3ccccc3)[C@@H]3[C@]4(OC(C)=O)CO[C@@H]4C[C@H](O)[C@@]3(C)C(=O)[C@H](OC(C)=O)C(=C1C)C2(C)C)[C@@H](NC(=O)c1ccccc1)c1ccccc1 has what IC50? 10000

====

Please go through the items and note down their half-life.
# METHOD_SUMMARY: Taxol release from protaxols in aqueous buffer
# Format: physicochemical
# ASSAY_CONTEXT: aqueous buffer; pH 9, 37° C.; read-out: t1/2 (pH 9), 50% taxol release
The figure you give is taken to be in h; do not add the unit.

Consider the compound CC(=O)O[C@H]1C(=O)[C@@]2(C)[C@H]([C@H](OC(=O)c3ccccc3)[C@]3(O)C[C@H](OC(=O)[C@H](OC(=O)OCCS(=O)(=O)c4ccccc4)[C@@H](NC(=O)c4ccccc4)c4ccccc4)C(C)=C1C3(C)C)[C@]1(OC(C)=O)CO[C@@H]1C[C@@H]2O and give its measured half-life. 1.1

// returns reported half-life for input CC(=O)O[C@H]1C(=O)[C@@]2(C)[C@H]([C@H](OC(=O)c3ccccc3)[C@]3(O)C[C@H](OC(=O)[C@H](OC(=O)CS(=O)(=O)CC(=O)O)[C@@H](NC(=O)c4ccccc4)c4ccccc4)C(C)=C1C3(C)C)[C@]1(OC(C)=O)CO[C@@H]1C[C@@H]2O [drawing 7] 0.5

Would you kindly share the measured half-life for CC(=O)O[C@H]1C(=O)[C@@]2(C)[C@H]([C@H](OC(=O)c3ccccc3)[C@]3(O)C[C@H](OC(=O)[C@H](OC(=O)CSCC(=O)O)[C@@H](NC(=O)c4ccccc4)c4ccccc4)C(C)=C1C3(C)C)[C@]1(OC(C)=O)CO[C@@H]1C[C@@H]2O [drawing 6] ? 5

Which half-life reading was recorded for the compound CC(=O)O[C@H]1C(=O)[C@@]2(C)[C@H]([C@H](OC(=O)c3ccccc3)[C@]3(O)C[C@H](OC(=O)[C@H](OC(=O)COCC(=O)O)[C@@H](NC(=O)c4ccccc4)c4ccccc4)C(C)=C1C3(C)C)[C@]1(OC(C)=O)CO[C@@H]1C[C@@H]2O [drawing 5] ? 1.83

Which half-life is reported for this compound? CC(=O)O[C@H]1C(=O)[C@@]2(C)[C@H]([C@H](OC(=O)c3ccccc3)[C@]3(O)C[C@H](OC(=O)[C@H](OC(=O)OCCS(=O)(=O)c4ccc([N+](=O)[O-])cc4)[C@@H](NC(=O)c4ccccc4)c4ccccc4)C(C)=C1C3(C)C)[C@]1(OC(C)=O)CO[C@@H]1C[C@@H]2O [drawing 11] 0.117

For the compound shown here, CC(=O)O[C@H]1C(=O)[C@@]2(C)[C@H]([C@H](OC(=O)c3ccccc3)[C@]3(O)C[C@H](OC(=O)[C@H](OC(=O)OCCS(=O)(=O)c4ccc(N)cc4)[C@@H](NC(=O)c4ccccc4)c4ccccc4)C(C)=C1C3(C)C)[C@]1(OC(C)=O)CO[C@@H]1C[C@@H]2O [drawing 12] , give the reported half-life. 1.68
